This listing pairs molecules with measured IC50.
Target: Recombinant JAK1 (Amino acids 850-1154) (Homo sapiens, UniProt P23458)
Construct: Recombinant JAK1 (Amino acids 850-1154; NM_002227.2)
Sequence (P23458 850-1154): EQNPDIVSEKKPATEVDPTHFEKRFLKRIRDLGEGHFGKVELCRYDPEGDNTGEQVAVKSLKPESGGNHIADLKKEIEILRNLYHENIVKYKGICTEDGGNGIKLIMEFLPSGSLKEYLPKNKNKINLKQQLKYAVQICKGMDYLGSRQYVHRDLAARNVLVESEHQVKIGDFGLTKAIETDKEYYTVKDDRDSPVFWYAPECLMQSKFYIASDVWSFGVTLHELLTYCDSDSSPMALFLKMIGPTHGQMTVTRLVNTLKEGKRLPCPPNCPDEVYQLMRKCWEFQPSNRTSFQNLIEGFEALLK
Test: Kinase-Glo Luminescent Kinase Assay, recombinant JAK1
Settings: 200 μg/ml Poly Glu-Tyr (4:1), ATP 1 uM, 90 min room temperature, luminescence
Description: Recombinant JAK1 (Amino acids 850-1154; NM_002227.2), JAK2 (Amino acids 808-1132; NM_004972.3) and JAK3 (Amino acids 781-1124; NM_000215.3) used in the studies were expressed using Invitrogen's Bac-to-Bac baculovirus expression system according to manufacturer's instructions. Adenosine 5′-triphosphate was obtained from Sigma Aldrich chemicals (Cat # A7699). […] The reactions were stopped by adding 5 μl of Kinase Glo® reagent & 10 μl of reaction mixture followed by measuring luminescence. […]

CN(CC(F)(F)F)C(=O)C1CCN(c2ccnc3cnc4[nH]ccc4c23)CC1 | > 20 nM
N#CCS(=O)(=O)N1CCCC(c2ccnc3cnc4[nH]ccc4c23)C1 (stereo not drawn) | 1 to 20 nM
CC(C)CC(=O)N1CCCC(c2ccnc3cnc4[nH]ccc4c23)C1 (stereo not drawn) | 1 to 20 nM
O=C(CC(F)(F)F)N1CCCC(c2ccnc3cnc4[nH]ccc4c23)C1 (stereo not drawn) | 1 to 20 nM
CC(C)C(=O)N1CCCC(c2ncnc3cnc4[nH]ccc4c23)C1 (stereo not drawn) | > 20 nM
O=C(NC1CC1)[C@@H]1CCCN(c2ccnc3cnc4[nH]ccc4c23)C1 [Ex. 61B] | > 20 nM
O=C(CC(F)(F)F)N1CC[C@H](c2ccnc3cnc4[nH]ccc4c23)C1 [Ex. 15A] | > 20 nM
CC(C)NC(=O)C1CCN(c2ccnc3cnc4[nH]ccc4c23)C1 (stereo not drawn) | 1 to 20 nM

API: the following record is the query input.
State the recorded IC50 for this entry: CCS(=O)(=O)N1CCC(c2ccnc3cnc4[nH]ccc4c23)C1 (stereo not drawn)
1 to 20 nM

Cited source: patent US9115133B2
